The measurements presented in this section are drawn from ChEMBL document CHEMBL1201862.

system: SW-620; assay: NCI tumour cell line growth inhibition, 48 h
Activity calls are given as the source filed them. Cut-off read from the data, not from the text of the source: active = GI50 up to about 1.1 µM and inactive = higher.
observable: GI50

{"columns": ["compound", "GI50"],
 "data": [
  ["COC(=O)C1=C(C)C(=O)C2(CCCCCC2C(=O)OC)C1 (centres undefined)", "> 100 µM (inactive)"],
  ["CC#Cc1c(O)c2c(c(O)c1C#CC)C(=O)c1ccccc1C2=O", "> 100 µM (inactive)"],
  ["CCOC(=O)NC(=O)c1cn(CCCOC(=O)CCCCCCCCCCC(=O)OCCCn2cc(C(=O)NC(=O)OCC)c(=O)[nH]c2=O)c(=O)[nH]c1=O", "> 100 µM (inactive)"],
  ["NNC(=O)c1cc(=O)[nH][nH]1", "> 100 µM (inactive)"],
  ["CC1S/C(=N/c2nnc(-c3ccccc3)o2)NC1=O (centres undefined)", "46 µM (inactive)"]
]}

Entry COc1cc(NCc2ccc3nc(-c4ccccc4)c(N)nc3c2)cc(OC)c1OC : GI50 on SW-620 = 48.5 µM (inactive)

Reported GI50 (SW-620) for entry CCCC1(CCC)c2cc(/C=N\O)ccc2-c2ccc(-c3ccc(C(C)(C)C)cc3)cc21 is 34.2 µM (inactive)

Simply: Cc1c2cccc-2c2cc(O)c3ccccc3c2n1-c1ccc(N(C)C)cc1 , SW-620, GI50 = 20.7 µM (inactive)

Let me check: C=C1CC[C@@H](Br)C(C)(C)[C@]12CCC(C)(O)C(Cl)C2 (some centres undefined) , system SW-620, measured GI50 is 14.2 µM (inactive)

Reading of GI50 for O=Cc1ccc2c(c1I)OCO2 with SW-620: > 100 µM (inactive)

Entry CCC(NC(C)c1ccccc1)C(=O)c1ccc(OCc2ccccc2)c(OCc2ccccc2)c1 (centres undefined) , SW-620 data, GI50 value: > 100 µM (inactive)

GI50 on SW-620 for Nc1c(S(=O)(=O)O)cc(S(=O)(=O)O)c2ccc(/N=N/c3ccc(/C=C/c4ccc(/N=N/c5ccc6c(S(=O)(=O)O)cc(S(=O)(=O)O)c(N)c6c5O)cc4S(=O)(=O)O)c(S(=O)(=O)O)c3)c(O)c12 is > 100 µM (inactive)

Here O=C1[C@H]2ON(c3ccccc3)C(c3ccco3)[C@H]2C(=O)N1c1ccc(Cc2ccc(N3C(=O)[C@@H]4ON(c5ccccc5)C(c5ccco5)[C@@H]4C3=O)cc2)cc1 (some centres undefined) was tested on SW-620, and its GI50 came to > 100 µM (inactive)

// assay SW-620, entry CN1CN(c2ccccc2)C2(CCN(CC(C)(c3ccc(F)cc3)C3OCCCO3)CC2)C1=O (centres undefined) , GI50 value = 20.6 µM (inactive)

----------
test system: KM12; assay: NCI tumour cell line growth inhibition, 48 h
Activity calls are given as the source filed them. Rule as the data show it: active = GI50 up to about 1.1 µM and inactive = higher.
Give one outcome, nothing more. List: label 1 (active), label 0 (inactive)

{"columns": ["compound", "qualitative.label"],
 "data": [
  ["Cc1ccc2sc3cc(=O)cc(C)c-3nc2c1", "label 0"],
  ["CCCCCCCCCC1CC(=O)OC2=C1C(=O)CCC2 (stereo not drawn)", "label 0"],
  ["N#Cc1nc(-c2ccccn2)oc1N", "label 0"],
  ["CC(C)OCN1COCN/C1=N/C#N", "label 0"],
  ["CN(C)CCn1c(=O)c2ccc(NCCNCCO)c3c(=O)c4ccccc4n(c1=O)c23", "label 1"],
  ["Cc1[nH]c(-c2ccccc2)c2nc(N(C)C)oc(=O)c12", "label 0"],
  ["CC(C)C1(Cl)CCC2C3(C)CCCC(C)(C(=O)O)C3CC(Cl)C2(Cl)C1Cl (stereo not drawn)", "label 0"],
  ["O=C1C=CC=C/C1=C1\\N=C(c2ccccc2OCC(=O)c2ccccc2)SS1", "label 0"],
  ["CC(=O)/N=C1\\N/C(=C/c2cc([N+](=O)[O-])ccc2O)CN1C", "label 0"],
  ["Cc1cccc(CP(Cc2cccc(C)c2)CC2(Cp3c4ccccc4c4ccccc43)COC2)c1", "label 0"]
]}

How was CCOC(=O)Cn1sc2ncc([N+](=O)[O-])cc2c1=O classified in this test?
label 0

How did this test come out for CC1S/C(=N/c2nnc(-c3ccccc3)o2)NC1=O (stereo not drawn) ?
label 0

// outcome(item) with item = COc1ccc(C2=CC(c3ccc4c(c3)OCO4)c3c(c4ccccc4oc3=O)O2)cc1OC (stereo not drawn)
label 0
